target: DPP-4 (human recombinant) (Homo sapiens, UniProt P27487); construct: purchased Sigma Aldrich D3446; assay: In vitro assay for DPP-4 inhibitory activity (fluorescence, Gly-Pro-AMC); assay type: biochemical; details: flavonoid 200 μM; mean ± SD, three independent experiments; read-out: % Inhibition at 200μM
Sequence (P27487 whole entry): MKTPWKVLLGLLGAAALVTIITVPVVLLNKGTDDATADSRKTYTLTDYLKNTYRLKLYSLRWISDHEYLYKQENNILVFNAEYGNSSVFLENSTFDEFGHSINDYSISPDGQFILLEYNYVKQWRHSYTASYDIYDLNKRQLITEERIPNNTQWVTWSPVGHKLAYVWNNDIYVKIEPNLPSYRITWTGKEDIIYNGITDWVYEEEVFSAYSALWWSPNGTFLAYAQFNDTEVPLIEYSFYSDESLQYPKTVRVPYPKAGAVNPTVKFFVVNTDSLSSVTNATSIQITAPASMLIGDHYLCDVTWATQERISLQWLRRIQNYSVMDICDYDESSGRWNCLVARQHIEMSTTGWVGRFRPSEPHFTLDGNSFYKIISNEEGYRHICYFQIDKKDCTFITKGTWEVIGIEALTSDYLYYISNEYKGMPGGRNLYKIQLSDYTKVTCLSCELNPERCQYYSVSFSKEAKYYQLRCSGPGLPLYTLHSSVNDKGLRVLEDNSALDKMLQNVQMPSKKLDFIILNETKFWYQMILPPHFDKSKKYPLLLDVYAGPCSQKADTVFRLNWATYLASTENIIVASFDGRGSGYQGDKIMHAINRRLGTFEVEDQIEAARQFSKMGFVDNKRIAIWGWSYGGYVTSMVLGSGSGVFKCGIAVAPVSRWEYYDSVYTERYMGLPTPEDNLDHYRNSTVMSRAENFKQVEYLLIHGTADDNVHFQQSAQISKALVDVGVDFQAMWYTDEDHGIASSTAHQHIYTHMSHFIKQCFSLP
Please use condition met whenever inhibition at 200 µM is not below 40%, and condition not met whenever it is.

compound	assigned label
CC1OC(OCC2OC(Oc3c(-c4ccc(O)cc4)oc4cc(O)cc(O)c4c3=O)C(O)C(O)C2O)C(O)C(O)C1O (centres unmarked) [E14, Kaempferol 3-O-rutinoside]	condition not met
O=c1c(-c2ccc(O)cc2)coc2cc(O)ccc12	condition not met
COc1cc(-c2[o+]c3cc(O)cc(OC4OC(CO)C(O)C(O)C4O)c3cc2OC2OC(CO)C(O)C(O)C2O)cc(OC)c1O (centres unmarked)	condition not met
O=C1c2c(O)cc(O)cc2O[C@H](c2ccc(O)cc2O)[C@H]1O [C1, Dihydromorin]	condition not met
O=c1cc(-c2ccc(O)cc2)oc2cc(O)cc(O)c12	condition met
CC1OC(Oc2cc(O)c3c(=O)c(O)c(-c4ccc(O)c(O)c4)oc3c2)C(O)C(O)C1O (centres unmarked) [E25, Quercetin 7-O-rhamnoside]	condition met

Exam item: decide whether the reported inhibition at 200 µM for COc1ccc(-c2coc3cc(O)ccc3c2=O)cc1 is at least 40%.
condition not met

Same question for Oc1cc(O)c2c(c1)OC(c1ccc(O)c(O)c1)C(O)C2 (centres unmarked) [D1, Catechin] please.
condition not met

----------
Entries and their measured inhibition at 200 µM follow.
biological target: DPP-4 (human recombinant) (Homo sapiens); construct: purchased Sigma Aldrich D3446; test: In vitro assay for DPP-4 inhibitory activity (fluorescence, Gly-Pro-AMC); format: biochemical; conditions: read-out: % Inhibition at 200μM

The following compounds have reported results that may help.
compound	test value
COc1ccc(C2CC(=O)c3c(O)cc(OC4OC(COC5OC(C)C(O)C(O)C5O)C(O)C(O)C4O)cc3O2)cc1O (stereo not drawn)	< 10%
O=c1cc(-c2ccc(O)cc2)oc2c([C@@H]3O[C@H](CO)[C@@H](O)[C@H](O)[C@H]3O)c(O)cc(O)c12	27%

Need inhibition at 200 µM of O=c1cc(-c2ccc(O)c(O)c2)oc2c([C@@H]3O[C@H](CO)[C@@H](O)[C@H](O)[C@H]3O)c(O)cc(O)c12 , thanks.
38.6%

Request: O=c1c(O)c(-c2ccc(O)cc2)oc2c(O)c(O)cc(O)c12
25.7%

Same thing, different compound: O=c1c(O)c(-c2ccc(O)cc2)oc2cc(OC3OC(CO)C(O)C(O)C3O)cc(O)c12 (stereo not drawn) [E17, Kaempferol 7-O-glucoside]
48.8%

Another compound: C[C@@H]1O[C@@H](OC[C@H]2O[C@@H](Oc3cc(O)c4c(c3)O[C@H](c3ccc(O)cc3)CC4=O)[C@H](O)[C@@H](O)[C@@H]2O)[C@H](O)[C@H](O)[C@H]1O
14%

Follow-up entry: COc1cc(-c2[o+]c3cc(O)cc(O)c3cc2OC2OC(CO)C(O)C(O)C2O)cc(OC)c1O (stereo not drawn) [F3, Malvidin 3-O-glucoside]
15%

Query COc1cc(-c2oc3cc(O)cc(O)c3c(=O)c2O)ccc1O next
29.4%

What do we get for O=C(CCc1ccc(O)cc1)c1c(O)cc(O)cc1O ?
17.8%

----------
biological target: DPP-4 (human recombinant) (Homo sapiens, UniProt P27487); construct: purchased Sigma Aldrich D3446; assay: In vitro assay for DPP-4 inhibitory activity (fluorescence, Gly-Pro-AMC); type: biochemical; settings: flavonoid 200 μM; mean ± SD, three independent experiments; read-out: % Inhibition at 200μM
Readings of inhibition at 200 µM for the listed compounds
All answers are understood in %, so give the number only.

Some compounds with recorded inhibition at 200 µM:
compound	test value
O=C1c2c(O)cc(O)cc2OC(c2ccc(O)c(O)c2)C1O (stereo not drawn)	19.9
C[C@@H]1O[C@@H](Oc2c(-c3ccc(O)c(O)c3)oc3cc(O)cc(O)c3c2=O)[C@H](O)[C@H](O)[C@H]1O	47.6
O=c1c(O)c(-c2ccc(O)c(O)c2)oc2cc(O)cc(O)c12	39.4
O=c1c(O)c(-c2ccc(O)cc2)oc2cc(O)cc(O)c12	32.2
O=c1cc(-c2ccc(O)c(O)c2)oc2cc(O[C@@H]3O[C@H](CO)[C@@H](O)[C@H](O)[C@H]3O)cc(O)c12 [A10, Luteoloside]	45.6
O=C1C[C@@H](c2ccc(O)cc2)Oc2cc(O)ccc21	17.1
O=c1c(OC2OC(CO)C(O)C(O)C2O)c(-c2ccc(O)c(O)c2)oc2cc(OC3OC(COC4OC(CO)C(O)C(O)C4O)C(O)C(O)C3O)cc(O)c12 (stereo not drawn) [E24, Quercetin 3-O-glu-7-O-gentiobioside]	33.9
O=c1c(O[C@@H]2O[C@@H](CO)[C@H](O)[C@H]2O)c(-c2ccc(O)c(O)c2)oc2cc(O)cc(O)c12 [E1, Avicularin]	27.1

Fill in the recorded inhibition at 200 µM for this compound, with DPP-4 (human recombinant) (Homo sapiens, UniProt P27487) as test system: Oc1cc(O)c2cc(O)c(-c3ccc(O)c(O)c3)[o+]c2c1
18.8

Also O=c1c(OC2OC(CO)C(O)C(O)C2O)c(-c2ccc(O)cc2)oc2cc(O)cc(O)c12 (stereo not drawn) [E13, Kaempferol 3-O-galactoside] , if possible.
46.3

And then O=c1cc(-c2ccc(O)c(O)c2)oc2cc(O)cc(O)c12 , what is it?
47.5

Now the compound O=c1c(-c2ccc(O)cc2)coc2cc(O)cc(O)c12
15.3

----------
# % Inhibition at 200μM annotations
target: DPP-4 (human recombinant) (Homo sapiens); construct: purchased Sigma Aldrich D3446; assay: In vitro assay for DPP-4 inhibitory activity (fluorescence, Gly-Pro-AMC); type: biochemical; details: flavonoid 200 μM; mean ± SD, three independent experiments
Give the number; % is assumed, so skip it.

Consider the worked cases shown below.
molecule	unit text	% Inhibition at 200μM
O=c1c(O[C@@H]2O[C@H](CO)[C@H](O)[C@H](O)[C@H]2O)c(-c2ccc(O)c(O)c2)oc2cc(O)cc(O)c12 [E4, Hyperoside]	%	62.10
COc1ccc(CCC(=O)c2c(O)cc(O[C@@H]3O[C@H](CO)[C@@H](O)[C@H](O)[C@H]3O[C@@H]3O[C@@H](C)[C@H](O)[C@@H](O)[C@H]3O)cc2O)cc1O [G2, Neosperidin dihydrochalcone]	%	17.15
COc1cc(-c2oc3cc(O)cc(O)c3c(=O)c2O[C@@H]2O[C@H](CO[C@@H]3O[C@@H](C)[C@H](O)[C@@H](O)[C@H]3O)[C@@H](O)[C@H](O)[C@H]2O)ccc1O [E21, Narcissoside]	%	57.50

Note: attention shifts to another entry.
What measured % Inhibition at 200μM is associated with OCC1OC(Oc2cc3c(O)cc(O)cc3[o+]c2-c2ccc(O)c(O)c2)C(O)C(O)C1O (stereo not shown) [F2, Cyanidin 3-O-glucoside chloride] on DPP-4 (human recombinant) (Homo sapiens)?
68.05

----------
target: DPP-4 (human recombinant) (Homo sapiens, UniProt P27487); construct: purchased Sigma Aldrich D3446; test: In vitro assay for DPP-4 inhibitory activity (fluorescence, Gly-Pro-AMC); format: biochemical; settings: flavonoid 200 μM; mean ± SD, three independent experiments; read-out: % Inhibition at 200μM;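 note: fluorescence of released AMC (excitation 360 nm, emission 460 nm) followed kinetically over 30 min at 37 °C in Tris-HCl pH 8.0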
parameter measured: inhibition at 200 µM (%)
Give just the number in %; leave the unit off.

Examples with answers:
>>> df
                                   compound  test_value
0  COc1ccc(-c2cc(=O)c3c(O)cc(O)cc3o2)cc1O [A4, Diosmetin]        22.2
1  O=c1c(O)c(-c2ccc(OC3OC(CO)C(O)C(O)C3O)cc2)oc2cc(O)cc(O)c12 (stereo not drawn) [E16, Kaempferol 4'-O-glucoside]        37.2

Bench note: what inhibition at 200 µM did O=C1c2c(O)cc(O)cc2O[C@H](c2cc(O)c(O)c(O)c2)[C@H]1O [C2, Dihydromyricetin] show?
20.6

----------
biological target: DPP-4 (human recombinant) (Homo sapiens); construct: purchased Sigma Aldrich D3446; experiment: In vitro assay for DPP-4 inhibitory activity (fluorescence, Gly-Pro-AMC); assay type: biochemical; conditions: flavonoid 200 μM; mean ± SD, three independent experiments; read-out: % Inhibition at 200μM
inhibition at 200 µM listing for selected compounds.

Examples with answers:
compound	test value
O=C1C[C@@H](c2ccc(O)cc2)Oc2cc(O)cc(O)c21	< 10%
COc1cc(-c2oc3cc(O)cc(O)c3c(=O)c2O[C@@H]2O[C@H](CO[C@@H]3O[C@@H](C)[C@H](O)[C@@H](O)[C@H]3O)[C@@H](O)[C@H](O)[C@H]2O)ccc1O [E21, Narcissoside]	> 50%

Let's switch to this compound now.
Query: inhibition at 200 µM; subject: O=c1c(O[C@@H]2O[C@H](CO)[C@H](O)[C@H](O)[C@H]2O)c(-c2ccc(O)c(O)c2)oc2cc(O)cc(O)c12 [E4, Hyperoside]
> 50%
